# IC50 annotations
# study-target: BChE enzyme from human blood (Homo sapiens)
# Construct: BChE enzyme from human blood of a volunteer; from tissue; host or cells: human blood of a volunteer
# Sequence (P06276 29-602): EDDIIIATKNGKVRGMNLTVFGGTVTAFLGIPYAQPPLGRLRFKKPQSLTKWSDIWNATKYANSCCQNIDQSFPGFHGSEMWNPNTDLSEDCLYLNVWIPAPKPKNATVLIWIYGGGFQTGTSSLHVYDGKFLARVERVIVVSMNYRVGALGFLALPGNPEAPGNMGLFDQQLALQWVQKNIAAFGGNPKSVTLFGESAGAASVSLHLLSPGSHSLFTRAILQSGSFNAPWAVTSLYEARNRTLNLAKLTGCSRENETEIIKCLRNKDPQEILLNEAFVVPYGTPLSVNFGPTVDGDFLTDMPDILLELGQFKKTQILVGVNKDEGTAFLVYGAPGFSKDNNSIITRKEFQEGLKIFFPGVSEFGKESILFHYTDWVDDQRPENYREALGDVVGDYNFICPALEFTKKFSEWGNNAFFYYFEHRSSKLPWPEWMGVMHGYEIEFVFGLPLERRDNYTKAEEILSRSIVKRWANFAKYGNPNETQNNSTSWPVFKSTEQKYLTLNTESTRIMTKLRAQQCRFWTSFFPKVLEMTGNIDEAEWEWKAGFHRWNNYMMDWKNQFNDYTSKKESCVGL
# assay-overview: Anti-BChE assay, Ellman method
# Assay type: biochemical
Kindly answer with a numeric value in µM, unit omitted.

# example entries with known answers
[
  {
    "molecule": "C=C1C[C@@]23CCC4[C@](C)(C(=O)O)CCC[C@@]4(C)[C@@H]2CC[C@@H]1C3 (single isomer, unassigned; (-)) [Compound 2, (-) kaur-16-en-19-oic acid]",
    "IC50 (µM)": 111
  },
  {
    "molecule": "CC[C@H](CC[C@@H](C)[C@H]1CC[C@H]2[C@@H]3CC=C4C[C@@H](O)CC[C@]4(C)[C@H]3CC[C@]12C)C(C)C [Compound 3, β-sitosterol]",
    "IC50 (µM)": 104
  }
]

Alright, here's another molecule for you.
(Q) What IC50 appears in the records for this molecule with BChE enzyme from human blood (Homo sapiens)? CC(C)C=CC[C@@H](C)[C@H]1CC[C@H]2[C@@H]3CC=C4CC(O)CC[C@]4(C)[C@H]3CC[C@]12C (stereo partly drawn) [Compound 4, cholesta-5,23-dien-3-ol]
(A) 124

----------
# assay-overview: Brine shrimp lethality bioassay (cytotoxicity)
# condition-set: Artemia salina (brine shrimp nauplii), in vivo
# LC50 at 24 h annotations
Kindly answer with a numeric value in µg/mL, unit omitted.

# example entries with known answers
[
  {
    "compound": "C=C1C[C@@]23CCC4[C@](C)(C(=O)O)CCC[C@@]4(C)[C@@H]2CC[C@@H]1C3 (single isomer, unassigned; (-)) [Compound 2, (-) kaur-16-en-19-oic acid]",
    "measured-metric": "LC50 at 24 h",
    "assay-result": 16.2
  },
  {
    "compound": "C[C@@]12CCC[C@@](C)(C(=O)O)[C@H]1CC[C@@]13C[C@@H](CC[C@H]12)[C@](C)(O)C3 [Compound 1, (-) kaur-16α-hydroxy-19-oic acid]",
    "measured-metric": "LC50 at 24 h",
    "assay-result": 12.4
  }
]

(Q) Name the reported LC50 at 24 h value associated with the compound CC[C@]1(O)C[C@H]2CN(CCc3c([nH]c4ccccc34)[C@@](C(=O)OC)(c3cc4c(cc3OC)N(C=O)[C@H]3[C@@](O)(C(=O)OC)[C@H](OC(C)=O)[C@]5(CC)C=CCN6CC[C@]43[C@@H]65)C2)C1 [Vincristine, vincristine, reference compound]
(A) 3.48

(Q) Name the reported LC50 at 24 h value associated with the compound CC(C)C=CC[C@@H](C)[C@H]1CC[C@H]2[C@@H]3CC=C4CC(O)CC[C@]4(C)[C@H]3CC[C@]12C (stereo partly shown)
(A) 14.3

----------
# study-target: AChE enzyme from mice brain (Mus musculus)
# Construct: We used the prepared AChE enzyme from mice brain; from tissue; host or cells: mouse brain
# Sequence (P21836 32-614): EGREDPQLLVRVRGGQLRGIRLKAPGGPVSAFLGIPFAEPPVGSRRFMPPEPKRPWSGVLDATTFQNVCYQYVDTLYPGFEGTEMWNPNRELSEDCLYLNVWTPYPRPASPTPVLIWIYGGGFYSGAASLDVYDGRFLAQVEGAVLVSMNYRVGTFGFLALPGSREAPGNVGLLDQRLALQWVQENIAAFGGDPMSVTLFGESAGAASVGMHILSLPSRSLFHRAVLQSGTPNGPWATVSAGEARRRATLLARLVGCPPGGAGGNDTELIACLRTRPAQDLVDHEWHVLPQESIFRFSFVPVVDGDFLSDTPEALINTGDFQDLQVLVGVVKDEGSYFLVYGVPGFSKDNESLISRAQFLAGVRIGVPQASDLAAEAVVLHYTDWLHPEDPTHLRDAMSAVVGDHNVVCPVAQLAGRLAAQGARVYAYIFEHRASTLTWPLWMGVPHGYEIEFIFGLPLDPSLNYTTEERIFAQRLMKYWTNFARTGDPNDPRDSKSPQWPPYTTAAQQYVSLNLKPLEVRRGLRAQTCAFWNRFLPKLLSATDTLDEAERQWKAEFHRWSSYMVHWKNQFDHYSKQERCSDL
# assay-overview: biochemical
measured-metric: IC50 (µM)
Kindly answer with a numeric value in µM, unit omitted.

# example entries with known answers
[
  {
    "compound": "C=C1C[C@@]23CCC4[C@](C)(C(=O)O)CCC[C@@]4(C)[C@@H]2CC[C@@H]1C3 (single isomer, unassigned; (-)) [Compound 2, (-) kaur-16-en-19-oic acid]",
    "output-unit": "µM",
    "assay-result": 115
  },
  {
    "compound": "CC[C@H](CC[C@@H](C)[C@H]1CC[C@H]2[C@@H]3CC=C4C[C@@H](O)CC[C@]4(C)[C@H]3CC[C@]12C)C(C)C [Compound 3, β-sitosterol]",
    "output-unit": "µM",
    "assay-result": 107
  }
]

Alright, here's another compound for you.
(Q) What IC50 appears in the records for this compound with AChE enzyme from mice brain (Mus musculus)? CC(C)C=CC[C@@H](C)[C@H]1CC[C@H]2[C@@H]3CC=C4CC(O)CC[C@]4(C)[C@H]3CC[C@]12C (stereo partly drawn) [Compound 4, cholesta-5,23-dien-3-ol]
(A) 117
